Target: human RXFP1 (Homo sapiens, UniProt Q9HBX9)
Sequence (Q9HBX9 whole entry): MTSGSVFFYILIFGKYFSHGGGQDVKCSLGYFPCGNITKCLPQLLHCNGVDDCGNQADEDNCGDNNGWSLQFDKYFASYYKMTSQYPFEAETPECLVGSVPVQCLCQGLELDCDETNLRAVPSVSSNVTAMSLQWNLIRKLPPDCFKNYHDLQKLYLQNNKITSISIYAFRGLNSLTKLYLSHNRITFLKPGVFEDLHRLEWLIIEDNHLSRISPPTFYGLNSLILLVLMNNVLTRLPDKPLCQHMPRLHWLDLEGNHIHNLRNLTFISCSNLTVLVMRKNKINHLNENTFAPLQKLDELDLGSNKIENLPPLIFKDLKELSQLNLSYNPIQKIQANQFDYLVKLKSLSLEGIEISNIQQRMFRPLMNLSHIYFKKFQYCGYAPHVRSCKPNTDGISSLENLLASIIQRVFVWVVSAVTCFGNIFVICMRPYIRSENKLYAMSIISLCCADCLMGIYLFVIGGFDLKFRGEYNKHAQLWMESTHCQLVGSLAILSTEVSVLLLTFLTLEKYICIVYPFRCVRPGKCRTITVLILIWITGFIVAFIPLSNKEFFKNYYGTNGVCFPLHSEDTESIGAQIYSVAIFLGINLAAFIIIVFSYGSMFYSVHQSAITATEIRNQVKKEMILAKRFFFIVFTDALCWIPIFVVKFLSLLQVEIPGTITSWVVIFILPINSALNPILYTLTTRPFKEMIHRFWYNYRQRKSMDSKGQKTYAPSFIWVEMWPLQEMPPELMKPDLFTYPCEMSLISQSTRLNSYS
Test: hRXFP1 HEK293 cAMP assay (HTRF)
Settings: HEK293 cells stably expressing human RXFP1, 30 min at room temperature
pEC50: −log10 of the molar value.
MEASURED METRIC: pEC50

COc1ccc(C2CCCC(O)C2)cc1C(=O)N[C@@H]1C2CCC(/C2=C/C(F)(F)F)[C@@H]1C(=O)Nc1ccc(F)c(C(F)(F)F)c1 (single isomer, unassigned) [Example 38]	6.60
COc1ccc(/C=C/C(=O)N2CC3CCC(C2)O3)cc1C(=O)N[C@H]1[C@@H](C(=O)Nc2ccc(F)c(C(F)(F)F)c2)[C@H]2CC[C@@H]1/C2=C\C1CC1	7.86

I. COc1ccc(C(=O)N2CC3(C2)CS(=O)(=O)C3)cc1C(=O)N[C@H]1[C@@H](C(=O)Nc2ccc(F)c(C(F)(F)F)c2)[C@H]2CC[C@@H]1/C2=C\C1CC1
II. COc1ccc(C2CCC(O)CC2)cc1C(=O)NC1C2CCC(/C2=C/C(F)(F)F)[C@@H]1C(=O)Nc1ccc(F)c(C(F)(F)F)c1 (single isomer, unassigned) [Example 53]
III. COc1ccc(CCC(C)(C)O)cc1C(=O)N[C@@H]1C2CCC(/C2=C/C(F)(F)F)[C@@H]1C(=O)Nc1ccc(F)c(C(F)(F)F)c1 (some centres unmarked)
Data request: Hey, quick one: sort these by pEC50, largest value first please. Give the labels in the order specified.
Data returned: I, III, II
